Cited source for all entries: PubChem BioAssay

assay: cell viability in Huh7 cells, primary screen, cytotoxicity control for HCV replication inhibitor project, CellTiter-Glo luminescence, basal, 48 h (AID 1143); details: Huh7 HCV replicon, higher = more signal, called active from +8 up or from −8 down;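 also: Huh7 hepatoma cells carrying a hepatitis C replication reporter with no stimulus; test concentration not given here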
Activity calls are given as the source filed them.
reported_metric: z-score

| compound | reported_metric | result |
| --- | --- | --- |
| CCCNC(=O)[C@@]1(c2ccc([N+](=O)[O-])cc2)CC(=O)N(C2CCCCC2)[C@@H]1c1ccc(CO)cc1 | z-score | -1.83 (inactive) |
| CC(C)N1CC=CC23O[C@@H]4C=CCOC(=O)[C@@H]4[C@H]2C(=O)N(CCCO)[C@@H]3C1=O (stereo partly drawn) | z-score | -5.24 (inactive) |
| CCCCC(O)C1C=CC2C(=O)N(c3ccccc3)C(=O)C2N1Nc1ccc(C(C)C)cc1 (stereo not drawn) | z-score | -0.714 (inactive) |
| COc1ccc(NC(=O)O[C@H]2[C@H](OC(=O)Nc3ccccc3)[C@@H](OC(=O)Nc3ccccc3)[C@@H](OC)O[C@@H]2CO)cc1 | z-score | -4.91 (inactive) |
| O=C1N(Cc2ccccc2)Cc2ccccc2[C@@H]2OC(c3ccc(OCCCO)cc3)=N[C@]12CCS(=O)(=O)c1ccccc1 | z-score | -2.33 (inactive) |
| CCOC(=O)C1=CC[C@@H](c2cccc(Cl)c2)N(S(=O)(=O)c2ccc(C)cc2)C1 | z-score | -5.08 (inactive) |
| C=C(COC)/C(=C/C[C@H](OC(=O)c1ccncc1)c1ccccc1OCCO)c1cnc2ccccc2c1 | z-score | -0.854 (inactive) |
| CN1C(=O)C2C=CC(C(O)c3cccc4ccccc34)N(N3CCCCC3)C2C1=O (stereo not drawn) | z-score | 0.64 (inactive) |

----------
assay: small-molecule microarray binders of probe aXIP, primary screen, biochemical, NeuroSMM set, 635/667 nm fluorescence (AID 1119); details: higher = more signal, called active from +8 up or from −8 down;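 also: probe is the protein aXip251-270 applied at 1 µg/mL to compound-printed slides; binding of probe to printed compounds measured as 667 nm fluorescence plus signal to noise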
composite Z-score by entry:
reported_metric: composite Z-score

| compound | reported_metric | result_number |
| --- | --- | --- |
| O=C1O[C@H](c2ccccc2)[C@H](c2ccccc2)N2[C@H]1[C@@H](C(=O)NC[C@H](O)c1ccccc1)[C@]1(C(=O)Nc3ccc(C#CCCO)cc31)[C@H]2c1ccc(OCCO)cc1 | composite Z-score | 0.182 |
| COc1cccc(/C=C/C=O)c1 | composite Z-score | -0.245 |
| [N-]=[N+]=Nc1ccccc1[C@@H]1OC(c2ccc(OCCCO)cc2)=N[C@]1(Cc1ccccc1)C(=O)NCC(O)CO (some centres undefined) | composite Z-score | 0.66 |
| Cc1cc(C)c(C(O)C2C=CC3C(=O)NC(=O)C3N2Nc2ccc(Cl)cc2Cl)c(C)c1 (centres undefined) | composite Z-score | 0.234 |

----------
assay: S. cerevisiae growth modulation with rapamycin, primary screen, strain BY4716, OD600, 96 h (AID 1091); details: higher = more signal, called active from +8 up or from −8 down; also: test concentration not given here
Group membership follows z-score per the scheme range A = under 0.01, range B = from 0.01 up to 1, range C = 1 and over

| molecule | answer_label |
| --- | --- |
| C[C@]1(C(=O)NC2CC2)c2ccccc2C(=O)N(Cc2ccccc2)[C@H]1c1ccc(CO)cc1 | range A |
| COCCCNC(=O)[C@]1(CCS(=O)(=O)c2ccccc2)N=C(c2ccc(OCCCO)cc2)O[C@@H]1c1ccccc1CN=[N+]=[N-] | range C |
| COc1ccccc1CN1C(=O)c2ccccc2[C@@]2(Cc3ccccc3N(CC(F)(F)F)C2=O)[C@@H]1c1ccc(CO)cc1 | range A |
| COCCCNC(=O)[C@@]1(Cc2ccccc2N=[N+]=[N-])N=C(c2ccc(OCCCO)cc2)O[C@H]1c1ccccc1 | range B |
| COC(=O)c1c2oc(c1C(=O)OC)C(=O)N(Cc1ccccc1)Cc1cn(nn1)C[C@H](Cc1ccccc1)NC(=O)N[C@H](CO)CC2 | range B |
| CCOC(=O)c1ccc(NC(=O)O[C@H]2[C@H](OC(=O)Nc3ccc4c(c3)OCO4)[C@@H](OC(=O)Nc3ccc4c(c3)OCO4)[C@@H](OC)O[C@@H]2CO)cc1 | range C |
| COc1cc2c(cc1OC)CN(C(=O)[C@@H]1[C@H]3C(=O)O[C@H](c4ccccc4)[C@H](c4ccccc4)N3[C@H](c3ccc(OCCO)cc3)[C@@]13C(=O)Nc1ccc(C#CC4(O)CCCCCC4)cc13)CC2 | range C |
| Cc1ccc(S[C@]2(C(=O)NCC(F)(F)F)CC(=O)N(Cc3ccccc3C(F)(F)F)[C@@H]2c2ccc(CO)cc2I)cc1 | range C |
| COCCCNC(=O)[C@@]1(Sc2ccc(C)cc2)CC(=O)N(C2CCCCC2)[C@@H]1c1ccc(CO)cc1 | range A |
| O=C1C2C=CC(C(O)c3ccc(F)cc3)N(n3cnnc3)C2C(=O)N1Cc1ccccc1 (centres undefined) | range A |
| O=C(NCC(F)(F)F)[C@@H]1c2ccccc2C(=O)N(Cc2ccc(OC(F)(F)F)cc2)[C@H]1c1ccc(CO)cc1 | range A |
| COC(=O)c1ccc([C@H](NC(=O)c2ccco2)[C@]2(C)C[C@H]2C2CCCCC2)cc1 | range B |
| CCOC(=O)C[C@H]1[C@H](OC(=O)c2ccccc2-c2ccccc2)[C@@H](NC(=O)C2CCCCC2)c2cc(OCCCO)ccc2N1C(=O)Cc1ccc(OC)cc1 | range A |
| O=C1O[C@@H](c2ccccc2)[C@@H](c2ccccc2)N2[C@@H](c3ccccc3OCCO)[C@]3(C(=O)Nc4ccc(C#CCCO)cc43)[C@@H](C(=O)N3CCCCCCC3)[C@H]12 | range C |
| CCCC[C@@H]1C[C@H]1[C@@H](NC(=O)Cc1ccccc1)c1ccc(-c2ccccc2)cc1 | range A |
| CCCC[C@@H]1C[C@H]1[C@@H](NC(=O)c1ccccc1)c1ccc(C(F)(F)F)cc1 | range B |
| O=C1OCC=C[C@H]2OC34C=CCN(c5ccc(Cl)cc5)C(=O)[C@H]3N(CCO)C(=O)[C@@H]4[C@@H]12 (some centres undefined) | range B |
| CCCCCCc1nc(-c2cc(C)c(OC)c(C)c2)c(C)c2c1[Si](C(C)C)(C(C)C)OC2 | range B |
| CCOC(=O)[C@H]1[C@@H]2C(=O)N3CCC[C@H]3[C@H](O[Si](C(C)C)(C(C)C)C(C)C)[C@H]2C=C2CCN(S(=O)(=O)c3ccc(C)cc3)C[C@H]21 | range C |
| CC(C)OC(=O)C=C1C[C@@H](c2ccc(C(F)(F)F)cc2)O[C@@H](c2ccc(C(F)(F)F)cc2)O1 | range A |
| N#Cc1ccc(NN2C(C(O)c3ccc(F)cc3)C=CC3C(=O)N(c4ccccc4)C(=O)C32)cc1 (centres undefined) | range C |
| CN(C)C(=O)[C@@]1(CCS(=O)(=O)c2ccccc2)N=C(c2ccc(OCCCO)cc2)O[C@H]1c1ccccc1 | range B |
| [N-]=[N+]=NCc1ccccc1[C@H]1OC(c2ccc(OCCCO)cc2)=N[C@@]1(CCS(=O)(=O)c1ccccc1)C(=O)N1CCCCC1 | range C |
| COCCCNC(=O)[C@]1(CCS(=O)(=O)c2ccccc2)N=C(c2ccc(OCCCO)cc2)O[C@@H]1c1ccccc1N=[N+]=[N-] | range C |
| NC(=O)NCC#Cc1ccc2c(c1)[C@]1(C(=O)N2)[C@H](C(=O)NC[C@H](O)c2ccccc2)[C@H]2C(=O)O[C@H](c3ccccc3)[C@H](c3ccccc3)N2[C@@H]1c1ccc(OCCO)cc1 | range C |
| O=C(N1CCCCC1)[C@@]1(CCS(=O)(=O)c2ccccc2)COC(c2ccc(OCCCO)cc2)=N1 | range A |
| C[N+](C)(C)CCCCCCNC(=O)[C@H]1C[C@H]2C(=O)N[C@@H](Cc3ccccc3)C(=O)N2[C@H]1c1ccc(O)cc1 | range B |
| CCOC(=O)C1CCCCN1 (centres undefined) | range B |

----------
assay: osmotic lysis modulators in infected erythrocytes, primary screen, PSAC antagonist project, cell-based, P. falciparum Indochina, OD700, 3 h (AID 1156); conditions: higher = more signal, called active from +8 up or from −8 down
The source made the active and inactive calls.
The following compounds are listed with their measured z-score values.
reported_metric: z-score

| compound | result |
| --- | --- |
| CC(CO)N1C(=O)[C@@H]2[C@H]3C(=O)OCC=C[C@H]3OC23C=CCN(C(C)(C)C)C(=O)[C@@H]13 (some centres undefined) | -0.0717 (inactive) |
| C=C(/C(=C/C[C@H](OC(C)=O)c1ccccc1OCCO)c1cc(C(=O)OC)ccc1OC)C(C)C | 1.85 (inactive) |
| C#CCN([C@@H](Cc1ccc(O)cc1)C(=O)OC)[C@@H](/C=C/C1CC1)[C@H](O)Cc1ccccc1 | -0.824 (inactive) |
| C=CCC(OC(C)=O)[C@@H]1[C@@H](N(Cc2cccc3ccccc23)C(=O)c2cccc3ccccc23)c2cc(OCCCO)ccc2N1C(=O)c1ccc(-c2ccccc2)cc1 (some centres undefined) | 0.0426 (inactive) |
| COC(=O)c1c2oc(c1C(=O)OC)C(=O)N(Cc1ccccc1)Cc1cn(nn1)C[C@H](Cc1ccccc1)NC(=O)N[C@H](CO)CC2 | -0.252 (inactive) |
| CC(C)[Si](C#C[Si](C(C)C)(C(C)C)C(C)C)(O[C@H](C)c1cn([C@H](CO)Cc2ccccc2)nn1)C(C)C | -0.116 (inactive) |
| COc1ccc(C#Cc2ccc3c(c2)[C@]2(C(=O)N3)[C@H](c3ccc(O)cc3)N3[C@H](c4ccccc4)[C@H](c4ccccc4)OC(=O)[C@H]3[C@@H]2C(=O)O)cc1 | -8.12 (active) |
| C=CC[C@]1(C(=O)NCCN2CCOCC2)N=C(c2ccc(OCCCO)cc2)O[C@H]1c1ccccc1CN=[N+]=[N-] | 2.57 (inactive) |
| OCC1CC(c2ccccc2)=NO1 (centres undefined) | -0.182 (inactive) |
| NC(=O)N1C(=O)C2C(C1=O)C1C=C(CCCO)C2C(c2cccs2)N1Cc1cccc(OC(F)(F)F)c1 (centres undefined) | -0.569 (inactive) |
| COCC1=C2[C@@H](CCc3ccccc3)OB(O)C[C@@H]2[C@@H]2C(=O)C=CC(=O)[C@@H]2C1 | -0.623 (inactive) |
| [N-]=[N+]=Nc1ccccc1[C@@H]1OC(c2ccc(OCCCO)cc2)=N[C@]1(Cc1ccccc1)C(=O)NCC(O)CO (some centres undefined) | 2.32 (inactive) |
| COCCOC(=O)N1C(=O)[C@@]2(c3cc(C#CC4=CCCCC4)ccc31)[C@H](C(N)=O)[C@H]1C(=O)O[C@H](c3ccccc3)[C@H](c3ccccc3)N1[C@@H]2c1ccccc1OCCO | 0.629 (inactive) |
| O=C1O[C@@H](c2ccccc2)[C@@H](c2ccccc2)N2[C@@H](c3ccc(O)cc3)[C@]3(C(=O)Nc4ccc(C#CC5(O)CCCCCC5)cc43)[C@@H](C(=O)NC[C@H](O)c3ccccc3)[C@H]12 | 1.08 (inactive) |
